# Tested on: LOX IMVI melanoma
# experiment description: NCI tumour cell line growth inhibition, 48 h

molecule: O=C1NC(=O)C(Cc2ccccc2)(c2cccnc2)N1 (stereo not drawn)
TGI: > 100 µM
//
molecule: CC[C@](O)(CC(=O)O[C@H]1C(=O)O[C@@H]2C[C@H]3C(C)=CC(=O)[C@@H](O)[C@]3(C)[C@H]3[C@@]4(O)OC[C@]32[C@@H]1[C@@H](C)[C@H]4O)C(C)C
TGI: < 0.01 µM
//
molecule: COc1ccc2cc(CNCCCCCCCCCCCCNCc3ccc4cc(OC)ccc4c3)ccc2c1
TGI: 28.2 µM
//
molecule: COc1cc(Nc2nccc(Nc3ccc4c(C)[nH]nc4c3)n2)cc(OC)c1OC
TGI: 3.98 µM
//
molecule: O=C1CC(CC(O)[C@@H]2CCCC[C@@H]2O)CC(=O)N1c1ccccc1 (stereo partly drawn)
TGI: > 100 µM
//
molecule: OC1(CCc2ccccc2)COC(C(F)(F)F)(C(F)(F)F)C1 (stereo not drawn)
TGI: > 100 µM
//
molecule: Cc1c(NC(=O)C(C)(C)Br)c(=O)oc2c(C)c3occc(=O)c3cc12
TGI: > 100 µM
//
molecule: CCCCCCCCCCCCCCCCCCNc1ccn(C2OC(COP(=O)(O)OC3CC(n4cc(F)c(=O)[nH]c4=O)OC3COP(=O)(O)OCC3OC(n4ccc(N)nc4=O)C(O)C3O)C(O)C2O)c(=O)n1 (stereo not drawn)
TGI: 20 µM

* * *

# System: PC-3 prostate
# experiment description: NCI tumour cell line growth inhibition, 48 h

compound: COC(=O)c1cc2c(cc1Cl)SC(N(N(C)C)S(=O)(=O)c1ccc(Br)s1)=NS2(=O)=O
TGI: 35.1 µM

compound: CN(C)c1ccc(/C=N\NC(=O)c2ccccc2Nc2ccccc2C(=O)N/N=C/c2ccc(N(C)C)cc2)cc1
TGI: > 100 µM

compound: COc1ccc(/C=C2\CCC(CNc3cc(C)on3)C2=O)cc1 (stereo not given)
TGI: > 100 µM

compound: ClC1(Cl)C(c2ccccc2)C1c1ccccc1 (stereo not given)
TGI: > 100 µM

compound: Cc1ccc(-n2cnc3c(N)nc(N)nc32)cc1
TGI: > 100 µM

* * *

# Tested on: HCC-2998 colon
# experiment description: NCI tumour cell line growth inhibition, 48 h
Reported TGI is given for each of the following compounds.

compound: O=S(=O)(NC1=NCCN1C(=S)SN1CCn2c1nsc2=S)c1ccc(Br)cc1
TGI: > 100 µM
//
compound: CC(=O)O[C@@H]1CC[C@@]2(C)C(CC[C@H]3[C@@H]4CC[C@H]([C@H](C)CCc5nc6ccc(C)cc6[nH]5)[C@@]4(C)CC[C@@H]32)C1 (stereo partly specified)
TGI: > 100 µM
//
compound: c1ccc2c(c1)CCC/C2=N\OCC1CO1 (stereo unspecified)
TGI: > 100 µM
//
compound: NNC(=O)/C(=C/c1ccc(Cl)c(Cl)c1)NC(=O)c1ccccc1
TGI: > 100 µM
//
compound: Nc1nc(Cl)c(N)c(NCC2(CO)CCC2)n1
TGI: > 100 µM
//
compound: CCOC(=O)C(N)C[S][Sn]([CH3])([CH3])[Cl] (stereo unspecified)
TGI: > 100 µM
//
compound: COc1cc(/C=C(\C#N)c2nc3ccccc3o2)ccc1O
TGI: 41.9 µM
//
compound: COc1ccc(CN(C)c2ccc(CO)c(Cl)c2)cc1
TGI: 71.2 µM
//
compound: CC1(C)C2CCC3=C(CCC4(C)C5C[C@](C)(C(=O)O)CC[C@]5(C)CC[C@]34C)[C@@]2(C)CC[C@@H]1O (stereo partly specified)
TGI: > 100 µM
//
compound: Nc1c(C(=O)c2ccc(Cl)cc2)sc(Nc2ccccc2)c1-c1nc2ccccc2s1
TGI: > 100 µM
//
compound: CC1(C)CN=C(c2ccc3c(c2)Cc2cc(C4=NCC(C)(C)N4)ccc2-3)N1
TGI: 74.1 µM
//
compound: CC[C@H](NC(=O)[C@H](C)NC)C(=O)N1C[C@@H](O)C[C@H]1Cc1c(-c2[nH]c3cc(F)ccc3c2C[C@@H]2C[C@H](O)CN2C(=O)[C@H](CC)NC(=O)[C@H](C)NC)[nH]c2cc(F)ccc12
TGI: > 100 µM
//
compound: C=C(Cl)c1c(OC)cccc1OCc1ccccc1
TGI: > 100 µM
//
compound: O=c1ccn(C2OC(CO)C(O)C2F)c(=O)[nH]1 (stereo unspecified)
TGI: > 100 µM
//
compound: CC/C(C)=C1\CCC(CN2CCOCC2)C1=O (stereo unspecified)
TGI: 39.4 µM
//
compound: O=C(/C=C/c1ccc([N+](=O)[O-])o1)N1CCN(Cc2ccccc2)CC1
TGI: 29.3 µM

* * *

# System: XF 498 CNS
# experiment description: NCI tumour cell line growth inhibition, 48 h

compound: CCOC(=O)NC(=O)c1cn(CC(=O)NCC(=O)NCC(=O)NCCCN2CCN(CCCNC(=O)CNC(=O)CNC(=O)Cn3cc(C(=O)NC(=O)OCC)c(=O)[nH]c3=O)CC2)c(=O)[nH]c1=O
TGI: > 100 µM
//
compound: COc1ccccc1N1C(=O)/C(=C/c2ccc(N(CCC#N)CCC#N)cc2C)N=C1c1cc([N+](=O)[O-])ccc1Cl
TGI: > 100 µM
//
compound: COc1c2nc(CCl)[nH]c(=O)c2c(OC)c2nc(CCl)[nH]c(=O)c12
TGI: > 100 µM
//
compound: CCCCCCCCC[C@@H]1CC(=O)OCC2OC(O[C@H](CCCCCCCCC)CC(=O)OCC3OC(O[C@H](CCCCCCCCC)CC(=O)OCC4OC(O1)C(O)C(O)C4O)C(O)C(O)C3O)C(O)C(O)C2O (some centres not stated)
TGI: 23.3 µM
//
compound: COc1cc(/C=C(\C#N)C(=O)c2ccccc2)ccc1OCc1ccccc1
TGI: > 100 µM
//
compound: CCNC(=O)CCN(C(=O)O)S(=O)(=O)c1ccc(NC(=O)c2ccccc2)cc1
TGI: > 100 µM
//
compound: Cc1cc(Cl)ccc1NC(=O)CCCC(=O)C1CCCC1=O (configuration not stated)
TGI: > 100 µM
//
compound: COc1ccc([N+]2=NC(c3ccc([N+](=O)[O-])cc3)=NN(c3ccccc3)C2)cc1
TGI: > 100 µM
//
compound: CCN(CC)CCCC(C)Nc1c2ccc(Cl)cc2nc2ccc(OC)cc12 (configuration not stated)
TGI: 3.12 µM
//
compound: CC(C)CS(=O)(=O)/C(=C(\c1ccc(Br)cc1)S(=O)(=O)CC(C)C)c1ccc(Br)cc1
TGI: > 100 µM
//
compound: NC(=O)C(=Cc1ccc(C(O)P(=O)(O)O)cc1)C(N)=O (configuration not stated)
TGI: > 100 µM
//
compound: Cc1c(NC(=O)C(C)(C)Br)c(=O)oc2c(C)c3occc(=O)c3cc12
TGI: 98.6 µM

* * *

# Test system: SK-MEL-5 melanoma
# experiment description: NCI tumour cell line growth inhibition, 48 h

molecule: CCC(C)C(C(=O)N/N=C1/SCC(=O)N1c1ccccc1)C(=O)N/N=C1/SCC(=O)N1c1ccccc1 (centres undefined)
target system: SK-MEL-5 melanoma
relation sign: =
TGI (µM): 41.7

molecule: CC(=O)N1C(=O)CC2(N=C(C)CC2=O)c2ccccc21 (centres undefined)
target system: SK-MEL-5 melanoma
relation sign: >
TGI (µM): 10

molecule: CCN1CCN(C(=O)[C@]23CC[C@@H](C)[C@H](C)[C@@H]2C2=CC[C@@H]4[C@@]5(C)C/C(=C/c6ccncc6)C(=O)C(C)(C)[C@@H]5CC[C@@]4(C)[C@]2(C)CC3)CC1
target system: SK-MEL-5 melanoma
relation sign: =
TGI (µM): 3.14

molecule: CC(C)=CCCC(C)c1ccc(C)c2c1OCN(CC1CCNCC1)C2 (centres undefined)
target system: SK-MEL-5 melanoma
relation sign: =
TGI (µM): 18.3

molecule: COc1ccc(OC)c2sc(N3C(=O)/C(=C/c4ccc(Cl)cc4)N=C3c3ccccc3)nc12
target system: SK-MEL-5 melanoma
relation sign: >
TGI (µM): 100

molecule: CCOC(=O)C(SCCO)C(C(=O)OCC)n1cnc2c(N)ncnc21 (centres undefined)
target system: SK-MEL-5 melanoma
relation sign: >
TGI (µM): 58

molecule: COC(=O)c1s/c(=N\C(=S)N(C)C)n(-c2ccccc2)c1C(=O)OC
target system: SK-MEL-5 melanoma
relation sign: >
TGI (µM): 100

molecule: CC1(C)CN=C(c2ccc3c(c2)Cc2cc(C4=NCC(C)(C)N4)ccc2-3)N1
target system: SK-MEL-5 melanoma
relation sign: >
TGI (µM): 100

molecule: ClCc1cccc(Cn2cnc3c(NC45CC6CC(CC(C6)C4)C5)ncnc32)c1
target system: SK-MEL-5 melanoma
relation sign: =
TGI (µM): 31.7

Reference for the values: PubChem BioAssay (NCI)
